Values were extracted from PubChem BioAssay.

Experimental protocol: HUVEC growth inhibition – cell-based, human, primary screen (AID 575);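 note: 100% = median of untreated cell wells with 0.1% DMSO on each plate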
Study conditions: HUVEC proliferation, CellTiter-Glo luminescence, 72 h; at 10 µM; stronger effect = lower value
Provide the reported viability of each item.
Answers are plain numbers, in %.

// below: answered molecules
* CC1(C)NC(=O)N(CC(O)CN(Cc2ccccc2)Cc2ccccc2)C1=O (stereo unspecified) | 108
* Cc1cc(C)c2c(n1)nn1c(C3CC3)cc(C(F)(F)F)nc21 | 90.7
* CCc1ccccc1NC(=O)CSc1nc2n[nH]c(C)c2c(=N)n1-c1ccc(OC)cc1 | 66.4
* Cc1ccc(-n2cnnn2)c2cccnc12 | 72.1
* Cc1ccc2nc(NC(=O)C3CCCN(S(=O)(=O)c4cnc[nH]4)C3)sc2c1 (stereo unspecified) | 98

Now examine the next entry.
Problem: Tell me measured viability for CCOC(=O)c1ccc(NC(=O)CSc2ncccn2)cc1 please.
Solution: 85.9
